- System name: T1, human IGF2^1-67 (mature insulin-like growth factor 2) (human, UniProt P01344 25-91, biotinylated (site not stated) where immobilised on the chip (Tables 1-4))
- T1 construct: mature; also called mature IGF2; biotinylated IGF2
- T1 sequence (P01344 25-91): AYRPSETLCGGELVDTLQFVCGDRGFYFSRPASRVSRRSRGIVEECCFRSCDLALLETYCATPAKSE
- Assay text: SPR steady state, biotin-IGF2 on chip, pH 7.4
Quantity measured: pKd
The scale used: pKd is minus the common logarithm of the concentration in molar units.

IGF2R domain 11^AB5 (receptor, His6-tagged soluble domain 11; also called 1542YAKGWG1547) MKSNEHDDCQVTNPSTGHLFDLSSLSGRAGFTAAYAKGWGVYMSICGENENCPPGVGACFGQTRISVGKANKRLRYVDQVLQLVYKDGSPCPSKSGLSYKSVISFVCRPEAGPTNRPMLISLDKQTCTLFFSWHTPLACEQATECSV    8.19

Kindly consider the entry below.
Req: # lookup: pKd of domain 11^AB5 L1604A (receptor, See m5) MKSNEHDDCQVTNPSTGHLFDLSSLSGRAGFTAAYAKGWGVYMSICGENENCPPGVGACFGQTRISVGKANKRLRYVDQVLQLVYKDGSPCPSKSGASYKSVISFVCRPEAGPTNRPMLISLDKQTCTLFFSWHTPLACEQATECSV
Resp: 7.22
